Assay: protease stability score; higher = more stable; yeast display proteolysis, trypsin and chymotrypsin;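 further: relative to predicted unfolded state with 0 unfolded-like and 1 meaning tenfold more protease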
Quick rule: protease stability score of at least 1 means TRUE, below that means FALSE.

Hi, just wondering whether `DDEEDKAREAFKMLQELVNTGNEELLYQYFDPNYRLDVDGRQIHGREAVVNERRKRFEMWGVEQVRLHIDTWDIIGNKVKLDGHLNFNGVIKKTHIHLLKVNGRWVIESERIE` shows protease stability score of 1 or higher.
TRUE

Say whether `DDEEEEEEKFRKILEEALETGDERILHHFADPHVQTHFNGQTFHGREEWIKILRKLGVERVHLNIKRVEVYGDKIHIDGELHFDGRTHKVELVALKVDGRWLLHKIVIR` shows protease stability score of 1 or more.
TRUE

Is protease stability score for `HEEEEEARRFSTLFNRAMLTGDEDELKEYADPHVRIDINGVILHGRERLREWLEKYLKEIRWHDFKIEHVDVQGDKVDIKVNVDGHINGRRTTRETEIRVEKIDGRWVIREIRFR` at or above 1?
FALSE

Kindly determine if protease stability score recorded for `SEEEELLRRIMKRVIHEWLTGDEDSFKELADPNVRVENIVDGRNIEAVGRDEAEHVWRHFDKHLGVDHRELKEFHVFDGVIRVRMKLKIGDKEIEMHLKFIIIDGRFTRVHSHSV` is above or exactly 1.
TRUE

Please tell me: is the sequence `EEEHELTELLSRLWVHAIRTGDEDTLKELMDPNTRFEINGKEHIGRERLTDAFRELRVHRLHIEHIEIQGDKVLMETRSDIEINGVRRETETRIILHVVNGRIKEVRVHIK` at or over 1 in terms of protease stability score?
TRUE

Form field: protease stability score at least 1? Entry: `SELIRASETMMKAIADSEETGDWRLLRELFDPHVRIEIGDKKYHGWKYLKHFMEELRIESRTELEHVDTFDGKVRVEGTLTTDLRVNGQEHTINLDIRSIIVKIDGRWIIHKVKIH`
TRUE

====

Test: protease stability score; higher = more stable; yeast display proteolysis, trypsin and chymotrypsin;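 further: relative to predicted unfolded state with 0 unfolded-like and 1 meaning tenfold more protease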
protease stability score: recorded values
Give the figure only, with no unit attached.

Some solved cases for reference:
{"columns": ["RECORD_SEQUENCE", "protease stability score"],
 "data": [
  ["DEDTELVYRIIKRLKEYIKTGDEDSIKELLDPNARIEVGDKEIHGRDRFAHMLVEIWSKDHKVELKDSRTFPNHLEYDGVLREDIEIDGKRIHRTRKLIVLVRKVNGRWYVEEIIFH", 2.19],
  ["SEEHELSHHWADLMFHWMLTGDEEMFEHFADPHVRLHVNGKDIHGREKFVEWLREELEKIKNLTYRLHDVEIQGDKVHLTVKVDVNGKRLDTRVHIDLVNGRVRSIEIRHR", 1.42],
  ["DELERVSERAIKIFLHVFKTGDEHMHERMADPNVRVHVDGQDLHGREETVEHMLHFFERIKNVKIDVEDSKAYGDKVIVHSRLHWNGVTQHVELEMRKVNGRWEVTEIIIH", 0.1]
]}

Documented protease stability score of `TEDERMVSEHLKQWLHSLRTGDEDTIQRLFDPHTRIIFEGHEFIGMEDMEEWLTKFHEEARSHKLIIKRIHIIGDKVHVEGVLDGEYNGRRHELKVIIIALKINGRWVMHQIEIR` : 1.97

# protease stability score (sequence: `EERKESIRLAVEMIEHVFKTGNPEDEMSLFDPHAKLDVGDKHFHGREEYSRWSEEVRRRYGADHIEFRIEDVHSQGDFVDIHGKEVYIYNGVTFVIDVHFHVLKVNGRWLIKHIRIN` ) is 1.3

According to the records, this sequence `DEHEEDVSKFTKMWEEDIRTGDEDSLYKMIDPHALLDFNGKEIIGREEVMHILHEELRELRIHNVHTHDIKVQGNKVNLNIRFNIEINGRIYDLQYKYDWRKINGRWFAHSEVIR` displays protease stability score of 0.764

Per the record, `SEDTATAHLMVEYFTKSVHTGDEHTTKRQVDPTMRFDFNGKQIIGREKWKEDLLHWRMETTSHVDDFKLQGDKVRSRTTLHMILHFDGVVYHNTYDTEIIYHKVDGRWYFTEFHVR` has protease stability score of 1.14

Value of measured protease stability score for the entry `TEDEKTAKHAKELLEHSIRTGDERLMERLLDPHALLIFDGRHIHGREDISRWYREIRIHHIHDENSEIQGDKLHLHMRIDGEYDGKRHELRVHWHSEKVNGRWSIRQVVLH` : 1.44

Value of measured protease stability score for the entry `TEDERDVVKLLHLVSKLWLTGDEHILEHLADPSVRSDFDGVRLHGRRLLSYFLSELRIHHVEVRDVRVEYQGDKLIARSDTEVDLEIDGQRHRMDTRMILISRKWDGRWLIESISFEIQ` : 2.04

====

Test: protease stability score; higher = more stable; yeast display proteolysis, trypsin and chymotrypsin;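 further: relative to predicted unfolded state with 0 unfolded-like and 1 meaning tenfold more protease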
MEASURE_NAME: protease stability score
Give the figure only, with no unit attached.

{"columns": ["RECORD_SEQUENCE", "protease stability score"],
 "data": [
  ["TEEEHNVRIALSLYIETFKTGNEEVLRRRLDPNARLIFNGRDLHGRELIEDWIHEFHEKVPGLQIHRHEVKDWHVQGNKIDLDVHIDGVFDGKQTETRVILHILKVDGQWIMTVIEIR", 1.35]
]}

The sequence `DEREELSKHITERFIRSVQTGDERVLKELIDPHARVIVDGRRFIGRHVWVKILKDLGIDHLEIEHVDLIGDKARIDSRVDVDGQEHNVKIHLEVINGRIHWIEERIK` showed protease stability score equal to 1.04

Quick note, protease stability score for `DDSEEHAEEVVRELSESLRTGDEKSVDRLLDPNVKFIINGVEYVGRELFLELFKKTLEEIRIESIEVTHIDIQGEKVRLETKEHAIINGKRFQFKTEVIMRKVNGRWEIQELRFE` landed at 1.98

In plain terms, `SELEHDARNAEHWFEETFRTGDEEDRERLLDPHVLVEFNGREYIGWHVFQKFFNDLGVDHMEVRIHDSKVFNGRVHLDGELTIRQGDKLIRSHVHLILTKVDGRWRMREIRIH` has a documented protease stability score of 1.73

Quick note, protease stability score for `SEEEKRIRDWARLMEEWRRTGDEEDMSRNLDPNARLILIIDGRNILFHGREEVVRVLEELKERLGFKHEEIKDSRVQGDFLHIHGTLRFDGVETEVRVDTIVINGVVRTLKYHFE` landed at 0.467

Query `SEEQTRLEEETRLLIELLTTGNEEEWARMFDPHARVDLHIGDKTIHSIGRENISELVRLLRHWLGVNHNHSTQLRVIDGVSVLHTESKVGDKHSKVTWIFVIVDGRLKTMEIRVRID` yields protease stability score of 1.33

Measured protease stability score, `SEHDELVKRNLEEMIRAAETGDEEKLRQLMDPHVKLEVNGREFVGREHWERFFREVIHRFGVTRIEIILHRIHDIDGRIYVDGTEVYGDYFERSLWISLKVNGKWVITHQHIH` : 0.336

// protease stability score lookup, sequence = `SEIWHLAENLSHLWMHKILTGDEDSIRNLLDPNARVHVNGKEVHGREETVKFMRHRVDEMGVDHMHFELKRFEVQGNYAIHHGTLIIHVDGREIRIESTIHLLKVNGRWLITDSSER` , result: 0.845

response.value for `SEDDKRLREIADLWKHAFLTGDFNLIHKLMDPHARWVVNGQHVHGMEEWEHFLERIDVFRIESSRTDHIEVYGDKVQIDGHSNVKIQIGDKKIDLITRMEIRLIIINGRYHQVEHIVR` (field: protease stability score) = 0.707

Noted for `DEEKRRSHELADLWWEMLETGDWDRTKNLMDPDTRLHIGDKEDHGMENFYRFRKDFESQFPNMRIELKSHRVQGDFFEIKGKINFNGRLVEAEIRVKIVDGRLKEIHVHIK` : its protease stability score reads 0.821

Query `DEEERLWHEFLEEFLRYIITGNWKKIADLADPNVRYQQGEKTNIGREDFERHFEKTYNDLGVDHFEIDHVDIQGNKIEIHLWLRVNGQEHKIHIDVKVVNGRIKYVRIEYE` yields protease stability score of 1.5

====

Experiment: protease stability score; higher = more stable; yeast display proteolysis, trypsin and chymotrypsin;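 further: relative to predicted unfolded state with 0 unfolded-like and 1 meaning tenfold more protease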
MEASURE_NAME: protease stability score
Returns: the value as a bare number; no unit string appended.

# example entries with known answers
{"columns": ["RECORD_SEQUENCE", "MEASURE_NAME", "MEAS_VALUE"],
 "data": [
  ["DELQKMAKHWIELMIRAQETGDEEELKKYLDPDVRIDVDGRELHGREKADELLKEIRIHEFEIKHMRFQGDKLHLHGTDNQRQGNYEYHVEVTYHLIKINGRWSLREIRVE", "protease stability score", 0.637],
  ["DEQTELEDKMRELIMRTWDTGDEKLLQELADPDARAHFNINGQTDSRHGREEILRLFIKLWEILGVDHLHLQHVSVIDGKFHIHQEVRYDGKVTFLHIHVWIVNGRNRQFNVHIEHR", "protease stability score", 0.407]
]}

Lab note: `DEEHHLAKELVRLLQEALSTGDEDEVKRLIDPDYRLIIGEFIFHGREDLERWLHHARVSVKDSHLRHVKVQGDKVEINGERNLIVIIDGKKIERKHRLHLIIIKVDGRWFMESEKYD` gave protease stability score of 1.01
